# subject of test: mCCR5 (Mus musculus, UniProt P51682)
# Sequence (P51682 whole entry): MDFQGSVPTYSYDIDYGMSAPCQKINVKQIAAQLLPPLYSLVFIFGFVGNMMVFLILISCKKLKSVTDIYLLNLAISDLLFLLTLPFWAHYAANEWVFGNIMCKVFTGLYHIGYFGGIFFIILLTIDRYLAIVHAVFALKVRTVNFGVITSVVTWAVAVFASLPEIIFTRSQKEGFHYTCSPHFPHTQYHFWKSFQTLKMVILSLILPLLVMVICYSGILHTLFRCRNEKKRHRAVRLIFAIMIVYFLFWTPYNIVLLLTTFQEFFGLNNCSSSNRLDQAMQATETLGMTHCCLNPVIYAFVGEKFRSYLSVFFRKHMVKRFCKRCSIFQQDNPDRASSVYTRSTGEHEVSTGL
# experiment: Chemotaxis of mCCR5-transfected BaF3 cells to mCCL5
# condition: in serum; unit inferred
recorded endpoint: IC50

[in] Give the reported value of IC50 for this record: CCC(C)(C)[C@@H](Nc1c(Nc2c(F)ccc3c2C(=O)N[C@H]3C)c(=O)c1=O)c1ccc(C)o1 [Compound 1.136]
[out] > 10 µM

====

# subject of test: mCCR7 (Mus musculus)
# Construct: endogenous in cells; host or cells: mouse splenocytes (from the earlier reading's assay name)
# Sequence (P47774 25-378): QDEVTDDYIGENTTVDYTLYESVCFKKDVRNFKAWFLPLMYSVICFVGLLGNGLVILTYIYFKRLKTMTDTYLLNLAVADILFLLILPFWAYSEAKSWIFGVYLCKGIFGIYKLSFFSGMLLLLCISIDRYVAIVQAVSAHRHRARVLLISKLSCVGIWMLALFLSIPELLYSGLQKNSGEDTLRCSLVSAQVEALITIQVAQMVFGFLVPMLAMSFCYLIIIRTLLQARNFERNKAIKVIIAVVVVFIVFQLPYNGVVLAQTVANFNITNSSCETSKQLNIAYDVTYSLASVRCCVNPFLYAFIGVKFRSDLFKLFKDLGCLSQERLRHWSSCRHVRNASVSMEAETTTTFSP
# experiment: Chemotaxis of mouse splenocytes to mCCL19
# Format: cell-based
# condition: in serum; unit inferred
recorded endpoint: IC50 (µM)
// note: answer is a bare numeric in µM

[in] Give the reported value of IC50 for this record: CCC(C)(C)[C@@H](Nc1c(Nc2c(F)ccc3c2C(=O)N[C@H]3C)c(=O)c1=O)c1ccc(C)o1
[out] 6
